- Target System: α1G T-type Ca2+ channels (Homo sapiens)
- Construct: expressed in transfected cells; host or cells: HEK293 cells stably expressing α1G and Kir2.1
- Method: Screening of activity against T-type calcium channel with FDSS6000 (fluorescence, KCl-induced [Ca2+]i increase)
- Format: cell-based
- Measurement Context: 10 μM; HEK293 cells expressing α1G and Kir2.1; NA: Not Active; read-out: Inhibitory effect (%) of T-type calcium channel, Inhibition (%)
Property Name: inhibition at 10 µM (%)

Completed entries (count: 5):
Could you please provide reported inhibition at 10 µM for O=C(NCCN1CCOCC1)c1ccc2c(c1)C(=O)N(Cc1ccccc1Cl)C2=O [Compound 79] ? Thanks!
15.6

Could you please provide reported inhibition at 10 µM for O=C(NCCCN1CCCC1)c1ccc2c(c1)C(=O)N(Cc1ccccc1Cl)C2=O [Compound 78] ? Thanks!
25.4

Could you please provide reported inhibition at 10 µM for Cc1ccc(CN2C(=O)c3ccc(C(=O)NCCCN4CCOCC4)cc3C2=O)cc1 [Compound 110] ? Thanks!
9.1

Could you please provide reported inhibition at 10 µM for CN1CCN(CCCNC(=O)c2ccc3c(c2)C(=O)N(Cc2cccc(F)c2)C3=O)CC1 [Compound 67] ? Thanks!
2.2

Could you please provide reported inhibition at 10 µM for Cc1cccc(CN2C(=O)c3ccc(C(=O)NCCN4CCCC4)cc3C2=O)c1 [Compound 101] ? Thanks!
27.2

(A) CN1CCN(CCCNC(=O)c2ccc3c(c2)C(=O)N(Cc2ccc(F)cc2)C3=O)CC1 [Compound 74]
(B) Cc1cccc(CN2C(=O)c3ccc(C(=O)NCCCN4CCCCC4C)cc3C2=O)c1 (centres unmarked) [Compound 100]
(C) Cc1ccc(CN2C(=O)c3ccc(C(=O)NCCN4CCOCC4)cc3C2=O)cc1 [Compound 109]
Rank items: key inhibition at 10 µM, increasing. Reply with the labels, ordered as the question asks.
A, C, B

###

- Target System: α1G T-type Ca2+ channels (Homo sapiens, UniProt O43497)
- Construct: expressed in transfected cells; host or cells: HEK293 cells stably expressing α1G and Kir2.1
- Sequence (O43497 whole entry): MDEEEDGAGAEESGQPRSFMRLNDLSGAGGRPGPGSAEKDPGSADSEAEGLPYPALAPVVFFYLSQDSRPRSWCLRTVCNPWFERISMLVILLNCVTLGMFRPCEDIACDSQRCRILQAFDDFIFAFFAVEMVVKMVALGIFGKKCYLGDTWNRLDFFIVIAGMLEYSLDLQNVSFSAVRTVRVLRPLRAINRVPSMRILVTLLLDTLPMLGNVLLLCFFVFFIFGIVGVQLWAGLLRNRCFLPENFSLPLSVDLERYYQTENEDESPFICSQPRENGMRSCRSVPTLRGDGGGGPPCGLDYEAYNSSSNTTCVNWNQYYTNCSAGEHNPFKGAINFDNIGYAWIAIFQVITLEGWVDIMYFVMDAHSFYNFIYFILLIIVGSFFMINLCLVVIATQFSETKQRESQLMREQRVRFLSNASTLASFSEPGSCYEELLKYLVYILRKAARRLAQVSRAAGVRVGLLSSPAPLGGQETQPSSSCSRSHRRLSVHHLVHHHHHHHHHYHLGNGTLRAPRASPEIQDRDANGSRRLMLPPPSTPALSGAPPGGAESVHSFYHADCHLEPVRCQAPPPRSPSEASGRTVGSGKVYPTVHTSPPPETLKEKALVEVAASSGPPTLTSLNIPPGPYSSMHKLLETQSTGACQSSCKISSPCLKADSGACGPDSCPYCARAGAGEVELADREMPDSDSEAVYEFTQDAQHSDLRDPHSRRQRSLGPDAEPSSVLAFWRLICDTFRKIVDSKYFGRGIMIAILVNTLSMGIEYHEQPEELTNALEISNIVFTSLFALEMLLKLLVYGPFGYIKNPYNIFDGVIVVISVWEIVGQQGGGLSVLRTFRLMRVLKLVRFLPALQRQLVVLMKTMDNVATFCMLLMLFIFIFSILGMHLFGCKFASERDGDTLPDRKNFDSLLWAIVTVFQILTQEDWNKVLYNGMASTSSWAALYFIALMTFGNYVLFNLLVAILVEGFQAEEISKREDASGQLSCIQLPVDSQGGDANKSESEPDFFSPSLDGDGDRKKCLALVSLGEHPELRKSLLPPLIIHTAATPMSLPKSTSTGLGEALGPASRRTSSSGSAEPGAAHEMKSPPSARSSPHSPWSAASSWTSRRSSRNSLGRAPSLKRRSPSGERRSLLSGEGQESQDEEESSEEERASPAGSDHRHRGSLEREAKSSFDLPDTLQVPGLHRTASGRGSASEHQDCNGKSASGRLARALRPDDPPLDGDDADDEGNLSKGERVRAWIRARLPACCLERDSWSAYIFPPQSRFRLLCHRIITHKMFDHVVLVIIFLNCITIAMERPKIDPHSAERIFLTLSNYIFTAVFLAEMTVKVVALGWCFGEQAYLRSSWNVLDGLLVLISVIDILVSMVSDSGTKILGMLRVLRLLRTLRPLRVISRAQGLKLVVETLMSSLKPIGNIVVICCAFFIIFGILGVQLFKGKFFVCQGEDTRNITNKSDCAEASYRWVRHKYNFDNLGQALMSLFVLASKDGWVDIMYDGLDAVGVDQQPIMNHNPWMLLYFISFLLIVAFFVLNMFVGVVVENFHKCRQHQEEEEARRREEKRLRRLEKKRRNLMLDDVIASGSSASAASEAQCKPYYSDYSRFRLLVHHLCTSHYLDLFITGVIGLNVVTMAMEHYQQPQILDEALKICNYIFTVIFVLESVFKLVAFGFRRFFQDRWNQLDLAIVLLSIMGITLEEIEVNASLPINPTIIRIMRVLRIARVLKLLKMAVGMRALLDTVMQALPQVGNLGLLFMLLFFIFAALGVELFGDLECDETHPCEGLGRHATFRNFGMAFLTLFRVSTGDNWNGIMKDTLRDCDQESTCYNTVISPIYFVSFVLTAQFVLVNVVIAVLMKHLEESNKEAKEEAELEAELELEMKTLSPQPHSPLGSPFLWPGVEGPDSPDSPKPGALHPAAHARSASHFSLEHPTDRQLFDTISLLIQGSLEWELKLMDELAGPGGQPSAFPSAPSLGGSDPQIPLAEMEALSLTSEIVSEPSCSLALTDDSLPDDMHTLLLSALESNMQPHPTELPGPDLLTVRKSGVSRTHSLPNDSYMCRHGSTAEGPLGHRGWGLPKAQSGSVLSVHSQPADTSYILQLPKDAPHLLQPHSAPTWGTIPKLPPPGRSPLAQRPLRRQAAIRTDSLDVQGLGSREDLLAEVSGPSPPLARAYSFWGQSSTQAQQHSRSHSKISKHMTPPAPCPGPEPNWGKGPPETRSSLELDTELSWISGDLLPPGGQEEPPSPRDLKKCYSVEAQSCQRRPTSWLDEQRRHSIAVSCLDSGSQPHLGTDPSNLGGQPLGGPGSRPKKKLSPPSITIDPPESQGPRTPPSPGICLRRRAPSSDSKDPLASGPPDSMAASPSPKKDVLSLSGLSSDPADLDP
- Method: Screening of activity against T-type calcium channel with FDSS6000 (fluorescence, KCl-induced [Ca2+]i increase)
- Format: cell-based
- Measurement Context: 100 μM; HEK293 cells expressing α1G and Kir2.1; read-out: Inhibitory effect (%) of T-type calcium channel, Inhibition (%)
- Method: Meanwhile, the antagonistic activity of the novel compound of Formula (1) herein against T-type calcium channel was tested as described below. The synthesized compounds were tested for the activity against T-type calcium channel with FDSS6000. Compounds with good activity were selected and IC50 values were exactly obtained by using electrophysiological whole cell patch clamp method. […] All data were collected and analyzed using FDSS6000 and related software (Hamamatsu, Japan). […]
Property Name: inhibition at 100 µM (%)

Could you please provide reported inhibition at 100 µM for "O=C(NCCN1CCCC1)c1ccc2c(c1)C(=O)N(c1ccccc1)C2=O" ? Thanks!
20.3

(P) O=C(NCCCN1CCOCC1)c1ccc2c(c1)C(=O)N(Cc1ccc(F)cc1)C2=O
(Q) O=C(NCCN1CCCCC1)c1ccc2c(c1)C(=O)N(c1ccccc1)C2=O
Lab log: flag the item ( P or Q ) with the smaller inhibition at 100 µM figure. Your answer should be the label of the entry you select.
Q

Cited source for all entries: patent US7319098B2
